Test system: RPMI-8226 leukemia
EXPERIMENTAL_PROTOCOL: NCI-60 one-dose screen, 48 h (100 = growth as untreated, 0 = no growth, -100 = all killed)
ASSAY_CONDITIONS: 10 µM unless noted
This is part of a sample that, as a whole, favours compounds with a hit. Of some 83,000 tested, about 20% had one in any assay.
Entries and their growth
READOUT_LABEL: growth (%)

INSERT INTO assay_data (compound, readout_label, measurement) VALUES
  ('CCOc1ccc2c(c1)/C(=C\C=C\C1CC(C)C3CC(OCC)CCC3N1CC)CC(C)N2CC (configuration not stated)', 'growth', -52.2),
  ('O=C1/C(=C/c2ccccn2)CCc2ccccc21', 'growth', 14.6),
  ('COc1ccc2nc3cc([N+](=O)[O-])ccc3c(NNc3ccccc3)c2c1', 'growth', 62.1),
  ('O=C(Nc1ccc(Cl)c(Cl)c1)Nc1ccccc1O', 'growth', 18.8),
  ('CCNc1nnnn1CC', 'growth', 107),
  ('C/C(=N\NC(=S)N1CC2CCC(CC2)C1)c1ccccn1', 'growth', -6.26),
  ('O=C(c1ccccc1)c1cc2ccccc2oc1=O', 'growth', 84.3),
  ('C[C@@]1(CO)[C@H](O)CC[C@@]2(C)[C@H]1CC[C@H]1C[C@@H]3C[C@@]12CC[C@@]3(O)COC(=O)CN', 'growth', 43),
  ('CCCCCCCCc1cc(Cl)c(O)c(Cl)c1', 'growth', 98.3),
  ('O=C(Cc1ccccc1)C(F)(F)F', 'growth', 106),
  ('S=C(SSC(=S)N1CCOCC1)N1CCOCC1', 'growth', 76.9),
  ('CCCCCCCCCCCC[S+](C)CC(=O)[O-] (configuration not stated)', 'growth', 26.6);

Origin of values: PubChem BioAssay (NCI)
